system: Puccinia recondite f sp. tritici; assay: Test B: wheat leaf rust, test suspension sprayed on wheat seedlings, disease rating; format: in vivo; conditions: 200 ppm test suspension;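 note: 200 ppm unless marked * meaning 40 ppm or ** meaning 10 ppm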
Listed here: items and their measured Test B disease control rating.
Report only the number, with the unit % understood.

Answered examples (5):
- MOLECULE: "COCC(C)Nc1nccc(-c2c(-c3ccc(F)cc3)nn3c2CCCC3)n1 (stereo not drawn) [compound 1]"
  Test B disease control rating (%): 100
- MOLECULE: "CCN1CCCC1CNc1nccc(-c2c(-c3ccc(F)cc3)nn3c2CCCC3)n1 (stereo not drawn) [compound 41]"
  Test B disease control rating (%): 79
- MOLECULE: "CC(C)Nc1nccc(-c2c(-c3ccc(F)cc3)nn3c2CCC3)n1 [compound 91]"
  Test B disease control rating (%): 99
- MOLECULE: "CCNc1nccc(-c2c(-c3ccc(F)cc3)nn3c2CCCC3)n1 [compound 18]"
  Test B disease control rating (%): 100
- MOLECULE: "Fc1ccc(-c2nn3c(c2-c2ccnc(NC4CC4)n2)CCC3)cc1 [compound 92]"
  Test B disease control rating (%): 99

Field: next molecule
The molecule c1cc(-c2c(-c3ccsc3)nn3c2CCCC3)nc(NC2CC2)n1 [compound 180] , when measured on Puccinia recondite f sp. tritici, yielded Test B disease control rating of 99

====

Listed here: items and their measured Test B disease control rating.
tested on: Puccinia recondite f sp. tritici; test: Test B: wheat leaf rust, test suspension sprayed on wheat seedlings, disease rating; assay type: in vivo; details: 200 ppm test suspension;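 note: 200 ppm unless marked * meaning 40 ppm or ** meaning 10 ppm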
Report only the number, with the unit % understood.

Answered examples (3):
- STRUCTURE: "CNc1nccc(-c2c(-c3cccc(C)c3)nn3c2CCCC3)n1"
  TARGET SYSTEM: "Puccinia recondite f sp. tritici"
  MEASURED PARAMETER: "Test B disease control rating"
  REPORTED RESULT: 99
- STRUCTURE: "CCNc1nccc(-c2c(-c3cccc(C)c3)nn3c2CCCC3)n1"
  TARGET SYSTEM: "Puccinia recondite f sp. tritici"
  MEASURED PARAMETER: "Test B disease control rating"
  REPORTED RESULT: 99
- STRUCTURE: "CN(C)c1nccc(-c2c(-c3ccc(F)cc3)nn3c2CCCC3)n1"
  TARGET SYSTEM: "Puccinia recondite f sp. tritici"
  MEASURED PARAMETER: "Test B disease control rating"
  REPORTED RESULT: 91

Field: next compound
Lab note: CCCNc1nccc(-c2c(-c3ccccc3)nn3c2COCC3)n1 gave Test B disease control rating of 99

====

test system: Puccinia recondite f sp. tritici; test: Test B: wheat leaf rust, test suspension sprayed on wheat seedlings, disease rating; type: in vivo; conditions: 200 ppm test suspension;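 note: 200 ppm unless marked * meaning 40 ppm or ** meaning 10 ppm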
Rule: Test B disease control rating of 90% or more gives MET; anything lower gives NOT MET.

- STRUCTURE: "Fc1ccc(-c2nn3c(c2-c2ccnc(Oc4ccc(-n5cccc5)cc4)n2)CCCC3)cc1"
  GROUP: "MET"
- STRUCTURE: "Fc1ccc(-c2nn3c(c2-c2ccnc(NC4CC4)n2)CCC3)c(F)c1"
  GROUP: "MET"
- STRUCTURE: "COc1cc(Nc2nccc(-c3c(-c4ccccc4)nn4c3CCCC4)n2)ccc1F"
  GROUP: "NOT MET"

Now consider a different compound.
Say whether C=CCNc1nccc(-c2c(-c3ccc(F)cc3)nn3c2CCC3)n1 shows Test B disease control rating of 90% or more. MET

The measurements presented in this section are drawn from patent US8288375B2.
